Tested on: Trypanosoma cruzi
protocol-notes: GSK_TCAKS: pIC50 H2C9 Imaging: H9c2 Host Cardiomyocytes. […] Cells were then washed once with PBS before infection. T. cruzi trypomastigotes, collected at days 5 to 8 after infection from LLC-MK2 parasite infected cultures, were allowed to swim out for 4h at 37C from a centrifuged pellet (2,500 rpm/10 min/room temperature). Trypomastigotes were then collected and counted in a CASY Cell Counter. Trypomastigotes, in supplemented DMEM, were added to H9c2 cultures in a multiplicity of infection of 1 and incubated for 18 h. Cells were washed once with PBS before incubation of the infected H9c2 monolayer with trypsin (Life-Technologies) to detach cells from the flask. Cells were counted in a CASY Cell Counter using a 150 um capillary and their density set at 5 * 10^4 cells per mL in supplemented assay DMEM. Infected H9c2 were dispensed into 384-well poly-lysine coated assay plates at 50uL per well using a Multidrop Combi dispenser. After seeding them, the plates were incubated at 37C, 5% CO2 for 72h. Cultures were then fixed and stained by addition of 50 uL of a solution containing 8% formaldehyde and 4 uM DRAQ5 DNA dye (BioStatus, UK) per well. […] Five images were collected per well for reliable statistical analysis. Automated image analysis was performed with a script developed on Acapella High Content Imaging and Analysis Software (PerkinElmer). Output: Number of H9c2 Host Cardiomyocytes nuclei to determine drug-related cytotoxicity.
Type: functional, organism-based, Rattus norvegicus
conditions: H9c2, 4 h
Output label 1 for records whose IC50 is lower than 6 µM, label 0 for records at or above 6 µM.

Worked cases, answers included:
Cc1cc(Br)cc(C(=O)c2c(C(C)C)c(=O)[nH]c(=O)n2Cc2ccnc(N)c2)c1	label 0
COc1ccc(-c2csc(NC(=O)c3ccc([N+](=O)[O-])s3)n2)cc1OC	label 0
O=C(Cc1ccccc1)Nc1n[nH]c2sc(C(=O)NC3CCCC3)cc12	label 1
CC(c1ccccn1)N(C)Cc1nc2ccccc2n1C(C)C (stereo unspecified)	label 0
CC(C)c1cc(C(=O)N2CCCC(c3cc4ncccc4[nH]3)C2)on1 (stereo unspecified)	label 0

Exam item: Input Cc1nc2[nH]c(C)c(Cc3ccc(C(C)C)cc3)c(=O)n2n1 ; condition: IC50 strictly below 6 µM. Does it hold?
Marked response: label 0

Exam item: Input CCN(CC)S(=O)(=O)c1ccc(Cn2nc(C(=O)Nc3ccncn3)c3ccccc32)cc1 ; condition: IC50 strictly below 6 µM. Does it hold?
Marked response: label 0

Exam item: Input Cc1cccnc1CN1CCN(CCCOc2ccc(-c3ccc(C(N)=O)cc3)cc2)CC1 ; condition: IC50 strictly below 6 µM. Does it hold?
Marked response: label 0

Exam item: Input CC(C)(C)CC(=O)NCc1noc(COc2ccccc2)n1 ; condition: IC50 strictly below 6 µM. Does it hold?
Marked response: label 0

* * *

protocol-notes: GSK_TCAKS: pIC50 HepG2 human cell line viability assay using luminiscence. […] Seeding density was checked to ensure that new mono-layers were not more than 50% confluent at the time of harvesting. Cell suspension was added to 500 mL of the same medium at a final density of 1.2 * 10^5 cells/mL. This cell suspension was dispensed (25 uL, 3000 cells per well) into 384-well clear-bottom plates using a Multidrop Combi dispenser. Prior to addition of the cell suspension, the screening compounds (250 nL) were pre-dispensed into the plates with an Echo liquid handler. Plates were incubated for 48 h at 37C, 5% CO2. After incubation, plates equilibrated at room temperature for 30 min before proceeding to develop the luminescent signal. The signal developer, CellTiter-Glo Reagent, was allowed to equilibrate at room temperature for 30 min and added to the plates (25uL per well) using a Multidrop Combi dispenser. Plates were left for 10 min at room temperature for stabilization and then read using a ViewLux.
Assay type: toxicity, cell-based
Output 1 for records whose IC50 at 48 h is lower than 20 µM, 0 for records at or above 20 µM.

Exam item: Input CS(=O)(=O)N[C@H]1CC[C@@H](Oc2cc3cnccc3cc2-c2ccsc2)CC1 ; condition: IC50 at 48 h strictly below 20 µM. Does it hold?
Marked response: 0

Exam item: Input O=C1NCCn2ccc(Nc3nc(N[C@H]4CC[C@H](O)CC4)ncc3Cl)c21 ; condition: IC50 at 48 h strictly below 20 µM. Does it hold?
Marked response: 0

Exam item: Input O=S(=O)(c1cccc(CSc2nnc(-c3ccc4c(c3)OCO4)o2)c1)N1CCOCC1 ; condition: IC50 at 48 h strictly below 20 µM. Does it hold?
Marked response: 0

* * *

Listed below: pIC50 values for each entry.
Test system: Trypanosoma cruzi
protocol-notes: GSK_TCAKS: pIC50 H2C9 Imaging: H9c2 Host Cardiomyocytes. […] Cells were then washed once with PBS before infection. T. cruzi trypomastigotes, collected at days 5 to 8 after infection from LLC-MK2 parasite infected cultures, were allowed to swim out for 4h at 37C from a centrifuged pellet (2,500 rpm/10 min/room temperature). Trypomastigotes were then collected and counted in a CASY Cell Counter. Trypomastigotes, in supplemented DMEM, were added to H9c2 cultures in a multiplicity of infection of 1 and incubated for 18 h. Cells were washed once with PBS before incubation of the infected H9c2 monolayer with trypsin (Life-Technologies) to detach cells from the flask. Cells were counted in a CASY Cell Counter using a 150 um capillary and their density set at 5 * 10^4 cells per mL in supplemented assay DMEM. Infected H9c2 were dispensed into 384-well poly-lysine coated assay plates at 50uL per well using a Multidrop Combi dispenser. After seeding them, the plates were incubated at 37C, 5% CO2 for 72h. Cultures were then fixed and stained by addition of 50 uL of a solution containing 8% formaldehyde and 4 uM DRAQ5 DNA dye (BioStatus, UK) per well. […] Five images were collected per well for reliable statistical analysis. Automated image analysis was performed with a script developed on Acapella High Content Imaging and Analysis Software (PerkinElmer). Output: Number of H9c2 Host Cardiomyocytes nuclei to determine drug-related cytotoxicity.
Format: functional, organism-based, Rattus norvegicus
conditions: H9c2, 4 h
Hey, just a heads up that pIC50 is the negative log base 10 of the concentration in molar.

Solved entries:
COc1ccc(OC)c(NC(=O)c2ccc([N+](=O)[O-])o2)c1	5.40
Cc1cc(C)cc(NS(=O)(=O)c2cc(-c3cc(C)n[nH]3)ccc2C)c1	4.50
NS(=O)(=O)c1ccc(Nc2nccc(-c3cnn4ncccc34)n2)cc1	6.50
Cc1cccc(NS(=O)(=O)c2ccc3c(c2)C(=O)c2cc(S(=O)(=O)Nc4cccc(C)c4C)ccc2-3)c1C	4.50
O=C(Nc1nc(-c2ccc(F)cc2)cs1)c1ccc([N+](=O)[O-])s1	5.40

Exam item: Find the measured pIC50 of NS(=O)(=O)c1ccc(Nc2ncc3cccc(OC4CCNCC4)c3n2)cc1 and report it.
Marked response: 6.20

Exam item: Find the measured pIC50 of COc1ccc(CN(C)Cc2ccncc2)cc1-c1ccc(S(=O)(=O)NC2CCC2)s1 and report it.
Marked response: 5.00

Exam item: Find the measured pIC50 of COc1ncc(-c2ccc3nccc(-c4ccncc4)c3c2)cc1NS(C)(=O)=O and report it.
Marked response: 5.30

Exam item: Find the measured pIC50 of O=[N+]([O-])c1ccc(-c2nnn(-c3ccc(Cl)cc3)n2)o1 and report it.
Marked response: 5.00

Exam item: Find the measured pIC50 of Nc1cc(-c2ccc3ncnc(N4CCOCC4)c3c2)cnc1N and report it.
Marked response: 5.50

* * *

Tested on: Trypanosoma cruzi
protocol-notes: GSK_TCAKS: pIC50 Trypanosoma cruzi Imaging: Infected Cells. […] Cells were then washed once with PBS before infection. T. cruzi trypomastigotes, collected at days 5 to 8 after infection from LLC-MK2 parasite infected cultures, were allowed to swim out for 4h at 37C from a centrifuged pellet (2,500 rpm/10 min/room temperature). Trypomastigotes were then collected and counted in a CASY Cell Counter. Trypomastigotes, in supplemented DMEM, were added to H9c2 cultures in a multiplicity of infection of 1 and incubated for 18 h. Cells were washed once with PBS before incubation of the infected H9c2 monolayer with trypsin (Life-Technologies) to detach cells from the flask. Cells were counted in a CASY Cell Counter using a 150 um capillary and their density set at 5 * 10^4 cells per mL in supplemented assay DMEM. Infected H9c2 were dispensed into 384-well poly-lysine coated assay plates at 50uL per well using a Multidrop Combi dispenser. After seeding them, the plates were incubated at 37C, 5% CO2 for 72h. Cultures were then fixed and stained by addition of 50 uL of a solution containing 8% formaldehyde and 4 uM DRAQ5 DNA dye (BioStatus, UK) per well. […] Five images were collected per well for reliable statistical analysis. Automated image analysis was performed with a script developed on Acapella High Content Imaging and Analysis Software (PerkinElmer). Output: percentage of infected cells per well as a second infection marker.
Assay type: functional, organism-based, Rattus norvegicus
conditions: H9c2, 4 h
Output True for records whose IC50 is lower than 3 µM, False for records at or above 3 µM.

Worked cases, answers included:
CCCCc1cc(Nc2cc(C3CCC3)[nH]n2)nc(N2CCC2C(N)=O)n1 (stereo unspecified)	False
CN(Cc1cc2ccccc2s1)c1ncc2c(N)nc(N)nc2n1	False
O=C(Nc1ccc(Br)c(Cl)c1)Nc1ccc2c(c1)OCO2	False
O=C(NCCc1cccnc1)c1csc(-c2ccccc2)n1	True

Exam item: Input CC(C)c1cc(C(=O)N2CCCC(c3cc4ncccc4[nH]3)C2)on1 (stereo unspecified) ; condition: IC50 strictly below 3 µM. Does it hold?
Marked response: False
